Data origin, for the record: patent EP4624465A1

Please go through the items and note down their log10(IC50).
Target: DDR1 kinase (Homo sapiens, UniProt Q08345)
Assay: Evaluation of DDR1 kinase inhibition (LANCE Ultra TR-FRET kinase assay)
Assay type: biochemical
Design: purchased Carna Biosciences 08-113
Conditions: DDR1 protein 0.5 nM, LANCE Ultra ULight-poly GAT substrate, 2 hours at room temperature, duplicate; read-out: DDR-1 IC50
Sequence (Q08345 19-876 isoform Q08345-2 limits assumed): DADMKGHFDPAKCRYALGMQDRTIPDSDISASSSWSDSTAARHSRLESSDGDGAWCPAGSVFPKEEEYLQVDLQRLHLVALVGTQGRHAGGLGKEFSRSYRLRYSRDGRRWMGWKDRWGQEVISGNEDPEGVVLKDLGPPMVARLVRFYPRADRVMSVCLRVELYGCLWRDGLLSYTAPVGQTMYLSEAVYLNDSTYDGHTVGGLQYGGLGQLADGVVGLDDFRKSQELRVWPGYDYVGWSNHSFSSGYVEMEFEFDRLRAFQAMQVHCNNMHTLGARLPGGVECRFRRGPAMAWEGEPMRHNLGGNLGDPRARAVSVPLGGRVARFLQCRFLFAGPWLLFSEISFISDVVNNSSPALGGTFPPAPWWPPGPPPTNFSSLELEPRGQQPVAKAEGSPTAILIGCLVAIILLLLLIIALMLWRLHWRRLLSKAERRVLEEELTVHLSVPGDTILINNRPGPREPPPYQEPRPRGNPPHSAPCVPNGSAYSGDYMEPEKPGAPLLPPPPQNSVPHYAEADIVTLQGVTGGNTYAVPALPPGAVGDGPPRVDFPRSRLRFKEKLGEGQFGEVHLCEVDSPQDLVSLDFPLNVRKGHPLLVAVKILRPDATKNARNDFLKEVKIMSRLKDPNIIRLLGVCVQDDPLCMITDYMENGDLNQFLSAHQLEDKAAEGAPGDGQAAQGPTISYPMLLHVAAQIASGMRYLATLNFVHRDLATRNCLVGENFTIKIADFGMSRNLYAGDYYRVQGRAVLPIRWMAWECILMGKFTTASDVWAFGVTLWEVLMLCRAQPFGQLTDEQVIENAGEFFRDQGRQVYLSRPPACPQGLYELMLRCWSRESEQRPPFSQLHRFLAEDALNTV
Counter-ions that a name gives are not always drawn.
Log10 applied to IC50; unit prior to transform: nM.

- Compound: "Nc1cc(C(=O)N2CC(c3nn(Cc4noc(C5(C(F)(F)F)CC5)n4)c4cccc(F)c34)C2)ccn1"
  Test Target: "DDR1 kinase (Homo sapiens, UniProt Q08345)"
  log10(IC50): -0.52

Could I get log10(IC50) for every one of these entries?
1. Cc1nc(N)sc1C(=O)N1CC(c2nn(CC(=O)N3CCC[C@H]3C(F)(F)F)c3cccnc23)C1
2. CC(C)(C)OC(=O)Cn1nc(C2CN(C(=O)c3cc(N)ncc3F)C2)c2ccccc21
3. O=C(c1ccnc(NC2CCOCC2)c1)N1CC(c2nn(CC(=O)N3CCC[C@H]3C(F)(F)F)c3cc(F)cc(F)c23)C1
4. O=C(Cn1nc(C2CN(C(=O)c3ccnc(NC4CC4)c3)C2)c2c(F)cc(F)cc21)NCC(F)(F)F [Compound E-30, hydrochloride]
5. Nc1cc(C(=O)N2CC(c3nn(CC(=O)N4CC(F)(F)C[C@H]4CF)c4ccccc34)C2)c(F)cn1
6. CN(CC(F)(F)F)C(=O)Cn1nc(C2CN(C(=O)c3nc(N)ncc3F)C2)c2cc(F)ccc21
7. Nc1cc(C(=O)N2CC(c3nn(CC(=O)NC4CC(F)(F)C4)c4ccccc34)C2)ccn1

Ans:
2.15
0.56
1.32
0.61
0.58
0.84
1.00

Could I get log10(IC50) for every one of these entries?
1. Cc1nc(N)sc1C(=O)N1CC(c2nn(CC(=O)N3CCO[C@@H](C(F)(F)F)C3)c3cc(F)cc(F)c23)C1
2. Nc1cc(C(=O)N2CC(c3nn(Cc4noc(-c5ccc(F)cn5)n4)c4cccc(F)c34)C2)ccn1
3. Nc1cc(C(=O)N2CC(c3nn(Cc4nc(-c5ccncc5)no4)c4cccc(F)c34)C2)ccn1

Ans:
1. 1.85
2. 2.15
3. 1.70

Could I get log10(IC50) for every one of these entries?
1. O=C(Cn1nc(C2CN(C(=O)c3ccnc4[nH]ccc34)C2)c2c(Cl)cccc21)NCC(F)(F)F
2. CN(CC1CC(F)(F)C1)C(=O)Cn1nc(C2CN(C(=O)c3cc(N)ncc3F)C2)c2ccccc21
3. Nc1cc(C(=O)N2CC(c3nn(CC(=O)N4CCc5ccc(C6CC6)cc54)c4cc(F)cc(F)c34)C2)ccn1
4. Cc1nc(N)sc1C(=O)N1CC(c2nn(CC(=O)N3CCC[C@H]3C(F)(F)F)c3ccccc23)C1
5. COC[C@@H]1CCCN1C(=O)Cn1nc(C2CN(C(=O)c3cc(N)ncc3F)C2)c2c(F)cc(F)cc21

Ans:
1: 0.45; 2: 0.30; 3: 0.11; 4: 0.36; 5: 0.46

====

Biological target: UniProtKB Q08345
Assay: Evaluation of DDR1 kinase inhibition (LANCE Ultra TR-FRET kinase assay)
Type: biochemical
Design: purchased Carna Biosciences 08-113
Conditions: DDR1 protein 0.5 nM, LANCE Ultra ULight-poly GAT substrate, 2 hours at room temperature, duplicate; read-out: DDR-1 IC50
pIC50: −log10 of the molar value. Structures can show the parent of a compound that is named as a salt.
Lab note: anything with pIC50 at or over 8 counts as Condition met; the rest go in Condition not met.

- Molecule: "Nc1cc(C(=O)N2CC(c3nn(CC(=O)N4CCOc5ccccc54)c4cc(F)cc(F)c34)C2)ccn1 [Compound E-159]"
  Class Assignment: "Condition met"
- Molecule: "Nc1cc(C(=O)N2CC(c3nn(Cc4nc(-c5ccncc5F)no4)c4cncc(F)c34)C2)ccn1 [Compound E-170]"
  Class Assignment: "Condition not met"
- Molecule: "Nc1cc(C(=O)N2CC(c3nn(Cc4ccc(C(F)(F)F)cc4)c4cncc(F)c34)C2)ccn1 [Compound E-151]"
  Class Assignment: "Condition not met"

Q: Given Nc1cc(C(=O)N2CC(c3nn(CC(=O)NCC(F)(F)F)c4ccccc34)C2)ccn1 [Compound E-211] , state whether its pIC50 is at least 8.
Ans: Condition not met

Q: Given CN(C(=O)Cn1nc(C2CN(C(=O)c3cc(N)ncc3F)C2)c2ccccc21)C1COC1 [Compound E-254] , state whether its pIC50 is at least 8.
Ans: Condition not met

Q: Given Nc1cc(C(=O)N2CC(c3nn(Cc4ccccc4C(F)(F)F)c4cccc(F)c34)C2)ccn1 [Compound E-114, hydrochloride] , state whether its pIC50 is at least 8.
Ans: Condition not met

Q: Given CC1(C)COCCN1C(=O)Cn1nc(C2CN(C(=O)c3cc(N)ncc3F)C2)c2c(F)cc(F)cc21 [Compound E-177] , state whether its pIC50 is at least 8.
Ans: Condition met

Q: Given Cc1cc2c(C3CN(C(=O)c4ccnc(N)c4C)C3)nn(CC(=O)N3CCO[C@@H](C(F)(F)F)C3)c2cn1 [Compound E-178, dihydrochloride] , state whether its pIC50 is at least 8.
Ans: Condition not met

Q: Given C[C@@H]1COCCN1C(=O)Cn1nc(C2CN(C(=O)c3ccnc(N)c3)C2)c2c(F)cc(F)cc21 [Compound E-80, hydrochloride] , state whether its pIC50 is at least 8.
Ans: Condition not met

Q: Given Nc1nccc(C(=O)N2CC(c3nn(CC(=O)N4CCC[C@H]4C(F)(F)F)c4cc(F)ccc34)C2)n1 [Compound E-286] , state whether its pIC50 is at least 8.
Ans: Condition met

Q: Given Cc1c(C(=O)N2CC(c3nn(CC(=O)N4CCO[C@@H](C(F)(F)F)C4)c4ccccc34)C2)ccnc1N [Compound E-8] , state whether its pIC50 is at least 8.
Ans: Condition met

Q: Given CN(CC(F)(F)F)C(=O)Cn1nc(C2CN(C(=O)c3ccnc(N)n3)C2)c2cc(F)ccc21 [Compound E-293] , state whether its pIC50 is at least 8.
Ans: Condition not met

Q: Given CN(C(=O)Cn1nc(C2CN(C(=O)c3cc(N)ncc3F)C2)c2ccccc21)C1CC(F)(F)C1 [Compound E-250] , state whether its pIC50 is at least 8.
Ans: Condition met

Q: Given Cc1nccc2c1c(C1CN(C(=O)c3ccnc(NC4CC4)c3)C1)nn2CC(=O)N1CCC[C@H]1C(F)(F)F [Compound E-93] , state whether its pIC50 is at least 8.
Ans: Condition not met

====

Molecular target: DDR1 kinase (Homo sapiens, UniProt Q08345)
Assay: Evaluation of DDR1 kinase inhibition in DDR1-expressing U2OS cells (type I collagen stimulation, PathHunter detection)
Type: cell-based
Design: host or cells: U2OS
Settings: type I collagen 50 µg/mL stimulation, duplicate, read-out: DDR-1 IC50
Sequence (Q08345 19-913): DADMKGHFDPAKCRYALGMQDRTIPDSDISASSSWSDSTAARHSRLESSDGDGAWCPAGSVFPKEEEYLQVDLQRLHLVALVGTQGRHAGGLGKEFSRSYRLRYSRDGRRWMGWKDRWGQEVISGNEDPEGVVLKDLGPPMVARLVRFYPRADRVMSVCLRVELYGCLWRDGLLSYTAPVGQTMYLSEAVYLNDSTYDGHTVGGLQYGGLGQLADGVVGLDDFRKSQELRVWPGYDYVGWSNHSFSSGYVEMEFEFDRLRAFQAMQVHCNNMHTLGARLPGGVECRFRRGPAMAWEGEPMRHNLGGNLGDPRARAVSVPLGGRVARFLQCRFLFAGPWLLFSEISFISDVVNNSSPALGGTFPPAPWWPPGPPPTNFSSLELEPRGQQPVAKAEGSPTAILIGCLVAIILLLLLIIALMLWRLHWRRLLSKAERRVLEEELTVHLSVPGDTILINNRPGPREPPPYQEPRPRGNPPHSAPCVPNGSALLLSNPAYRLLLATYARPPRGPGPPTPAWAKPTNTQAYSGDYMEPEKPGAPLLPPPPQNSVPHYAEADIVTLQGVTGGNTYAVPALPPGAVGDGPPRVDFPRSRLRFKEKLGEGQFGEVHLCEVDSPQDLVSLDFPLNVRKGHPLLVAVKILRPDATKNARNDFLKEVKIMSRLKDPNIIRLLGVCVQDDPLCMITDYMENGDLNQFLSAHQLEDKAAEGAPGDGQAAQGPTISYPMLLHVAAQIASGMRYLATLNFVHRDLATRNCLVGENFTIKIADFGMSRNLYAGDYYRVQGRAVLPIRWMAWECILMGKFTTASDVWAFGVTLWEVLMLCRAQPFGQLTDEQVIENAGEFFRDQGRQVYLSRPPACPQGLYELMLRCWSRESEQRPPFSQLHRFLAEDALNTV
Where a name gives a salt, the structure may show the parent alone.
Readout Name: IC50 (µM)
One number for each entry, in µM.

Field: example entries. Status: answers known.
- Molecule: "Cc1ccnc2c1c(C1CN(C(=O)c3ccnc(N)c3)C1)nn2CC(=O)N1CCC[C@H]1C(F)(F)F [Compound E-15]"
  Test Target: "DDR1 kinase (Homo sapiens, UniProt Q08345)"
  Recorded Measurement: 2.6
- Molecule: "O=C(c1ccnc(NC2CCOCC2)c1)N1CC(c2nn(CC(=O)N3CCC[C@H]3C(F)(F)F)c3cc(F)cc(F)c23)C1 [Compound E-88]"
  Test Target: "DDR1 kinase (Homo sapiens, UniProt Q08345)"
  Recorded Measurement: 1.4
- Molecule: "Nc1cc(C(=O)N2CC(c3nn(CC(=O)NCC(F)F)c4cccc(F)c34)C2)ccn1 [Compound E-242]"
  Test Target: "DDR1 kinase (Homo sapiens, UniProt Q08345)"
  Recorded Measurement: 0.74

Could I get IC50 for every one of these entries?
1. Nc1cc(C(=O)N2CC(c3nn(CC(=O)N4CCC[C@H]4C(F)(F)F)c4ccncc34)C2)ccn1 [Compound E-13, hydrochloride]
2. Nc1cc(C(=O)N2CC(c3nn(CC(=O)N4CC(F)(F)C[C@H]4CF)c4ccccc34)C2)c(F)cn1 [Compound E-237]

Ans:
1.2
0.034

====

Target: DDR1 kinase (Homo sapiens)
Experiment: Evaluation of DDR1 kinase inhibition in DDR1-expressing U2OS cells (type I collagen stimulation, PathHunter detection)
Format: cell-based
Set-up: host or cells: U2OS
Details: type I collagen 50 µg/mL stimulation, duplicate, read-out: DDR-1 IC50
Counter-ions that a name gives are not always drawn.
I'd appreciate it if you marked entries yes (1) when IC50 is lower than 0.08 µM and no (0) when it is not.

Please review the entries below; each comes with its answer.
- Molecule: "Nc1cc(C(=O)N2CC(c3nn(CC(=O)N(CC(F)(F)F)C4CC4)c4ccccc34)C2)c(F)cn1"
  Class Assignment: "yes (1)"
- Molecule: "C[C@@H]1CN(C(=O)Cn2nc(C3CN(C(=O)c4ccnc(N)c4)C3)c3c(F)cc(F)cc32)C[C@H](C)O1"
  Class Assignment: "no (0)"
- Molecule: "Cc1c(C(=O)N2CC(c3nn(CC(=O)N4CCC[C@H]4C(F)(F)F)c4cc(F)cc(F)c34)C2)ccnc1N [Compound E-77, hydrochloride]"
  Class Assignment: "no (0)"

Now examine the next entry.
Q: Threshold test, IC50 < 0.08 µM: `CC(C)[C@@H]1COCCN1C(=O)Cn1nc(C2CN(C(=O)c3ccnc(N)c3)C2)c2c(F)cc(F)cc21`
Ans: yes (1)
